Origin of the recorded values: ChEMBL document CHEMBL1151961

Target: Bifunctional epoxide hydrolase 2 (Homo sapiens)
Sequence (P34913 whole entry): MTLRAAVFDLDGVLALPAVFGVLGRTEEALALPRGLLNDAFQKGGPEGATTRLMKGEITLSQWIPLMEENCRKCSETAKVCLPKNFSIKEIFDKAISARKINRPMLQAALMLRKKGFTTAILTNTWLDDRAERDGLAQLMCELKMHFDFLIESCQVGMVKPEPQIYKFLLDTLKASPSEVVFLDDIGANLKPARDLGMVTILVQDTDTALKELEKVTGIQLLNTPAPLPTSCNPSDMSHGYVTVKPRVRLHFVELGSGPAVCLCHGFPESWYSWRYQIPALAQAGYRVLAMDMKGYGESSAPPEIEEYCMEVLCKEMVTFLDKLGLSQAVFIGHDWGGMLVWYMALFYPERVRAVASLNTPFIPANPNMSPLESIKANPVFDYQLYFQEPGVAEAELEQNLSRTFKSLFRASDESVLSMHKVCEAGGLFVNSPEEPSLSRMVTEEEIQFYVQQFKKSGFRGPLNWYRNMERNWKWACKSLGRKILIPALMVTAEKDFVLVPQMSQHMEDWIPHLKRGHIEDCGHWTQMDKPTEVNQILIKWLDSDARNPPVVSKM
Assay: Inhibition of human recombinant soluble epoxide hydrolase expressed in baculovirus system assessed as appearance of 6-methoxynaphthaldehyde product by fluorescent-based assay
Test readout: IC50 (nM)

Worked cases, IC50 given:
Given `CCCCCCC(=O)NCCCCCCCC#CCCCC(=O)O` , state its recorded IC50.
272

Quick one: IC50 for `CCCCCNC(=O)OCCCC/C=C\CCCCCCC(=O)O` ?
3480

Given the molecule `CCCCNC(=O)NCCCCC/C=C\CCCCCCC(=O)OC` , what is its reported IC50?
152

Which IC50 is listed for `CCCCCN(C)C(=O)NCCCC/C=C\CCCCCCC(=O)O` ?
1450

Quick check: IC50 of `CCCCNC(=O)C(=O)NCCCC/C=C\CCCCCCC(=O)O` ?
58700

Value lookup for IC50; key = `CCCCCNC(=S)NCCCC/C=C\CCCCCCC(=O)O`
770

Consider the molecule shown here: `CCCCCN(C)C(=O)N(C)CCCCCCCC#CCCCC(=O)O` What is its recorded IC50?
11100

Please look up its IC50: `CCCCCCC(=O)N(C)CCCC/C=C\CCCCCCC(=O)O`
11200

I'd like to know its IC50. The molecule in question is `CCCCN(C)C(=O)C(=O)N(C)CCCC/C=C\CCCCCCC(=O)O`
17600

I. CCCCCCC(=O)NCCCC/C=C\CCCCCCC(=O)O
II. CCCCCCN(C)C(=O)CCCC/C=C\CCCCCCC(=O)O
III. CCCCCNC(=O)NCCCC/C=C\CCCCCCC(=O)O
Order the 3 molecules from highest to lowest IC50. Arrange the labels as the request states and list them.
II, I, III
(II: 13900 nM, I: 79 nM, III: 46 nM)
